meta.source: patent US20180127513A1

Molecular target: T1, human CD73 on cells (human, UniProt P21589 27-549)
T1 sequence: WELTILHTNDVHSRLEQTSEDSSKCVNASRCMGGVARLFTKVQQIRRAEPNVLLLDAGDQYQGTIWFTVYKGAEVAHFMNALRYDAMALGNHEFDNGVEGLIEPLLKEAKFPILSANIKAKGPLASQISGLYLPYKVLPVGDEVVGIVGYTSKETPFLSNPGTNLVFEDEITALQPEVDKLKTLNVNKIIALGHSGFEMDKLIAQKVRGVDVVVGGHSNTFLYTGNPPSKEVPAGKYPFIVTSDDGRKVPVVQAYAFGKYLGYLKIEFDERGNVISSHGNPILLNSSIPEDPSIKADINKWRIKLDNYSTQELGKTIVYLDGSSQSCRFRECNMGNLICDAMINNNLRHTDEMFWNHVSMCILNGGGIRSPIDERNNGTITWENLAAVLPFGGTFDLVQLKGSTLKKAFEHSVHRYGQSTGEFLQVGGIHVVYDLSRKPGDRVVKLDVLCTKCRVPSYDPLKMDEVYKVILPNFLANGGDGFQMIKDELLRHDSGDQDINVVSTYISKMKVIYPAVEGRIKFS
Assay: cell-based or functional assay
Reported property: Ymax, CD73 internalization (100 nM 11F11 set to 100%)
// note: answer is a bare numeric in %

| Binder | Readout unit | Readout value |
| --- | --- | --- |
| 7A11 (antibody, human IgG1, kappa, V domains shown) VH: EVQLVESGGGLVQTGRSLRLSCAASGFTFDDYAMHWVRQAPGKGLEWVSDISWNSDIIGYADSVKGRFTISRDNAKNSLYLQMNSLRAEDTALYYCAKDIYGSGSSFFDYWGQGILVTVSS VL: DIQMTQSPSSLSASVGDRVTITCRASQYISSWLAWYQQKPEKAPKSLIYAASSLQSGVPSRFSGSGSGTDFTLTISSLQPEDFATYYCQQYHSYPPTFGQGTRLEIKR | % | 50 |
| 11F11 (antibody, human IgG2, kappa, V domains shown, IgG2; also called 11F11-2) VH: QVQLVESGGGVVQPGRSLRLSCATSGFTFSNYGMHWVRQAPGKGLEWVAVILYDGSNKYYPDSVKGRFTISRDNSKNTLYLQMNSLRAEDTAVYYCARGGSSWYPDSFDIWGQGTMVTVSS VL: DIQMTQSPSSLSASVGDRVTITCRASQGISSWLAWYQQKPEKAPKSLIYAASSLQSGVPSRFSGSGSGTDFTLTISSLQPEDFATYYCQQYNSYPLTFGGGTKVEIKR | % | 98 |
| 10D2 (antibody, human IgG4, kappa, V domains shown) VH: QVQLVESGGGVVQPGRSLRLSCAASGFTFSNYGLHWVRQAPGKGLEWVAVIRYDGSNKYYADSVKGRFTISRDNSKNTLYLQMSSLRAEDTAVYYCARGGSSWYPDGLDVWGQGTTVTVSS VL: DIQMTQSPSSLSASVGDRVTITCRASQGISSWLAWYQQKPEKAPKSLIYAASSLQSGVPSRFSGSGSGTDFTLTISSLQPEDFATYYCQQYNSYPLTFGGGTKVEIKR | % | 29 |

Please turn your attention to the following entry.
GET /values?readout=Ymax, CD73 internalization (100 nM 11F11 set to 100%)&item= 24H2 (antibody, human IgG4, kappa, V domains shown) VH: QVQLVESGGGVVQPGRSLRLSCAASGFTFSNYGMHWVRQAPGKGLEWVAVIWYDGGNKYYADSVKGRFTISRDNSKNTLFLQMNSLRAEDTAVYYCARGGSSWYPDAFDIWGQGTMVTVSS VL: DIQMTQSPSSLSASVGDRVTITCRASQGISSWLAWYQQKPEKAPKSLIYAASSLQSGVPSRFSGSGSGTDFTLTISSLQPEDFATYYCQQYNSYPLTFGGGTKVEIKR 51
